Values from BigSolDB 2.1

RUN_PARAMETERS: in ethanol, 293.15 K
READOUT: solubility (mole fraction)
Numbers only.

Which solubility (mole fraction) value belongs to "CCCCCc1ccc2c(c1)C(=O)c1ccccc1C2=O" ?
0.00392

###

RUN_PARAMETERS: in sec-butanol, 323.15 K
READOUT: solubility (mole fraction)
Give bare numbers.

Which solubility (mole fraction) value belongs to "CCCCCc1ccc2c(c1)C(=O)c1ccccc1C2=O" ?
0.0388

###

RUN_PARAMETERS: in MIBK, 313.15 K
READOUT: solubility (mole fraction)
Give bare numbers.

Which solubility (mole fraction) value belongs to "CCCCCc1ccc2c(c1)C(=O)c1ccccc1C2=O" ?
0.0836

###

RUN_PARAMETERS: in n-propanol, 288.15 K
READOUT: solubility (mole fraction)
Answers are plain numbers.

Which solubility (mole fraction) value belongs to "CCCCCc1ccc2c(c1)C(=O)c1ccccc1C2=O" ?
0.00541

###

RUN_PARAMETERS: in sec-butanol, 308.15 K
READOUT: solubility (mole fraction)
Give bare numbers.

Which solubility (mole fraction) value belongs to "CCCCCc1ccc2c(c1)C(=O)c1ccccc1C2=O" ?
0.012

###

RUN_PARAMETERS: in MIBK, 318.15 K
READOUT: solubility (mole fraction)
Numbers only.

Which solubility (mole fraction) value belongs to "CCCCCc1ccc2c(c1)C(=O)c1ccccc1C2=O" ?
0.104

###

RUN_PARAMETERS: in MIBK, 298.15 K
READOUT: solubility (mole fraction)
Give bare numbers.

Which solubility (mole fraction) value belongs to "CCCCCc1ccc2c(c1)C(=O)c1ccccc1C2=O" ?
0.0601

###

RUN_PARAMETERS: in acetone, 298.15 K
READOUT: solubility (mole fraction)
One number for each entry.

Which solubility (mole fraction) value belongs to "CCCCCc1ccc2c(c1)C(=O)c1ccccc1C2=O" ?
0.0376

###

RUN_PARAMETERS: in MIBK, 293.15 K
READOUT: solubility (mole fraction)
Answers are plain numbers.

Which solubility (mole fraction) value belongs to "CCCCCc1ccc2c(c1)C(=O)c1ccccc1C2=O" ?
0.0539

###

RUN_PARAMETERS: in acetonitrile, 298.15 K
READOUT: solubility (mole fraction)
One number for each entry.

Which solubility (mole fraction) value belongs to "CCCCCc1ccc2c(c1)C(=O)c1ccccc1C2=O" ?
0.00811

###

RUN_PARAMETERS: in acetonitrile, 288.15 K
READOUT: solubility (mole fraction)
Give bare numbers.

Which solubility (mole fraction) value belongs to "CCCCCc1ccc2c(c1)C(=O)c1ccccc1C2=O" ?
0.00299

###

RUN_PARAMETERS: in n-propanol, 318.15 K
READOUT: solubility (mole fraction)
Numbers only.

Which solubility (mole fraction) value belongs to "CCCCCc1ccc2c(c1)C(=O)c1ccccc1C2=O" ?
0.0346

###

RUN_PARAMETERS: in ethanol, 308.15 K
READOUT: solubility (mole fraction)
One number for each entry.

Which solubility (mole fraction) value belongs to "CCCCCc1ccc2c(c1)C(=O)c1ccccc1C2=O" ?
0.00988

###

RUN_PARAMETERS: in ethyl acetate, 318.15 K
READOUT: solubility (mole fraction)

Which solubility (mole fraction) value belongs to "CCCCCc1ccc2c(c1)C(=O)c1ccccc1C2=O" ?
0.12

###

RUN_PARAMETERS: in methanol, 303.15 K
READOUT: solubility (mole fraction)
One number for each entry.

Which solubility (mole fraction) value belongs to "CCCCCc1ccc2c(c1)C(=O)c1ccccc1C2=O" ?
0.00364

###

RUN_PARAMETERS: in n-butanol, 308.15 K
READOUT: solubility (mole fraction)

Which solubility (mole fraction) value belongs to "CCCCCc1ccc2c(c1)C(=O)c1ccccc1C2=O" ?
0.0275

###

RUN_PARAMETERS: in acetone, 318.15 K
READOUT: solubility (mole fraction)
Numbers only.

Which solubility (mole fraction) value belongs to "CCCCCc1ccc2c(c1)C(=O)c1ccccc1C2=O" ?
0.0815

###

RUN_PARAMETERS: in sec-butanol, 298.15 K
READOUT: solubility (mole fraction)
One number for each entry.

Which solubility (mole fraction) value belongs to "CCCCCc1ccc2c(c1)C(=O)c1ccccc1C2=O" ?
0.0056

###

RUN_PARAMETERS: in n-butanol, 323.15 K
READOUT: solubility (mole fraction)
One number for each entry.

Which solubility (mole fraction) value belongs to "CCCCCc1ccc2c(c1)C(=O)c1ccccc1C2=O" ?
0.0626

###

RUN_PARAMETERS: in isopropyl acetate, 303.15 K
READOUT: solubility (mole fraction)
One number for each entry.

Which solubility (mole fraction) value belongs to "CCCCCc1ccc2c(c1)C(=O)c1ccccc1C2=O" ?
0.0842

###

RUN_PARAMETERS: in MIBK, 323.15 K
READOUT: solubility (mole fraction)
Answers are plain numbers.

Which solubility (mole fraction) value belongs to "CCCCCc1ccc2c(c1)C(=O)c1ccccc1C2=O" ?
0.126

###

RUN_PARAMETERS: in n-butanol, 288.15 K
READOUT: solubility (mole fraction)
One number for each entry.

Which solubility (mole fraction) value belongs to "CCCCCc1ccc2c(c1)C(=O)c1ccccc1C2=O" ?
0.00826

###

RUN_PARAMETERS: in ethanol, 313.15 K
READOUT: solubility (mole fraction)
Give bare numbers.

Which solubility (mole fraction) value belongs to "CCCCCc1ccc2c(c1)C(=O)c1ccccc1C2=O" ?
0.0145

###

RUN_PARAMETERS: in methanol, 288.15 K
READOUT: solubility (mole fraction)

Which solubility (mole fraction) value belongs to "CCCCCc1ccc2c(c1)C(=O)c1ccccc1C2=O" ?
0.00131

###

RUN_PARAMETERS: in isopropyl acetate, 318.15 K
READOUT: solubility (mole fraction)
Numbers only.

Which solubility (mole fraction) value belongs to "CCCCCc1ccc2c(c1)C(=O)c1ccccc1C2=O" ?
0.137

###

RUN_PARAMETERS: in ethyl acetate, 323.15 K
READOUT: solubility (mole fraction)

Which solubility (mole fraction) value belongs to "CCCCCc1ccc2c(c1)C(=O)c1ccccc1C2=O" ?
0.151

###

RUN_PARAMETERS: in MIBK, 303.15 K
READOUT: solubility (mole fraction)

Which solubility (mole fraction) value belongs to "CCCCCc1ccc2c(c1)C(=O)c1ccccc1C2=O" ?
0.0676

###

RUN_PARAMETERS: in acetone, 308.15 K
READOUT: solubility (mole fraction)
Answers are plain numbers.

Which solubility (mole fraction) value belongs to "CCCCCc1ccc2c(c1)C(=O)c1ccccc1C2=O" ?
0.0517

###

RUN_PARAMETERS: in n-butanol, 318.15 K
READOUT: solubility (mole fraction)
Numbers only.

Which solubility (mole fraction) value belongs to "CCCCCc1ccc2c(c1)C(=O)c1ccccc1C2=O" ?
0.0446

###

RUN_PARAMETERS: in isopropyl acetate, 293.15 K
READOUT: solubility (mole fraction)
Answers are plain numbers.

Which solubility (mole fraction) value belongs to "CCCCCc1ccc2c(c1)C(=O)c1ccccc1C2=O" ?
0.0598

###

RUN_PARAMETERS: in sec-butanol, 313.15 K
READOUT: solubility (mole fraction)
Numbers only.

Which solubility (mole fraction) value belongs to "CCCCCc1ccc2c(c1)C(=O)c1ccccc1C2=O" ?
0.0182

###

RUN_PARAMETERS: in n-butanol, 293.15 K
READOUT: solubility (mole fraction)
Numbers only.

Which solubility (mole fraction) value belongs to "CCCCCc1ccc2c(c1)C(=O)c1ccccc1C2=O" ?
0.0111

###

RUN_PARAMETERS: in acetonitrile, 308.15 K
READOUT: solubility (mole fraction)
Numbers only.

Which solubility (mole fraction) value belongs to "CCCCCc1ccc2c(c1)C(=O)c1ccccc1C2=O" ?
0.0203

###

RUN_PARAMETERS: in sec-butanol, 288.15 K
READOUT: solubility (mole fraction)
Numbers only.

Which solubility (mole fraction) value belongs to "CCCCCc1ccc2c(c1)C(=O)c1ccccc1C2=O" ?
0.00259

###

RUN_PARAMETERS: in acetone, 288.15 K
READOUT: solubility (mole fraction)
Give bare numbers.

Which solubility (mole fraction) value belongs to "CCCCCc1ccc2c(c1)C(=O)c1ccccc1C2=O" ?
0.0225

###

RUN_PARAMETERS: in isopropyl acetate, 288.15 K
READOUT: solubility (mole fraction)

Which solubility (mole fraction) value belongs to "CCCCCc1ccc2c(c1)C(=O)c1ccccc1C2=O" ?
0.0522

###

RUN_PARAMETERS: in methanol, 313.15 K
READOUT: solubility (mole fraction)
One number for each entry.

Which solubility (mole fraction) value belongs to "CCCCCc1ccc2c(c1)C(=O)c1ccccc1C2=O" ?
0.00682

###

RUN_PARAMETERS: in methanol, 318.15 K
READOUT: solubility (mole fraction)

Which solubility (mole fraction) value belongs to "CCCCCc1ccc2c(c1)C(=O)c1ccccc1C2=O" ?
0.00928
